Reference source for all entries: the Immune Epitope Database (IEDB)

I'd appreciate it if you could supply IC50 values for the items below.
# MEASUREMENT_TARGET: HLA-B*40:01
# TEST_DETAILS: IEDB peptide-MHC binding, purified MHC/competitive/fluorescence; bounds were set here for any values at or beyond the usual limits of such assays
# ASSAY_SETUP: source organism: Influenza A virus
Numbers only, in nM.

// solved cases for IC50 follow
{"columns": ["SEQ_STRING", "IC50 / nM"],
 "data": [
  ["AEKPKFLPDLY", 10900],
  ["YERMCNILKG", 2220],
  ["CEKLEQSGL", 1490]
]}

Proceed to the following item.
# input Return IC50 for the following sequence: FESKSMKL
# output 1230
